# Tested Target: human TLR9 (Homo sapiens (Human))
# Protocol Description: TLR9 inhibition reporter assay (HEK-Blue SEAP)
# Study Conditions: read-out: TLR9 IC50; HEK-Blue human TLR9 cells, ODN2006 5 nM
Consider the following compounds; for each one, report its IC50.
Quick reminder: number only, in µM, skip the unit.

The reported human TLR9 (Homo sapiens (Human)) IC50 of CNC1CCN(c2ccc3[nH]c(-c4cn5ncnc5c(C)c4C)c(C(C)C)c3n2)CC1 is 7.02

The reported human TLR9 (Homo sapiens (Human)) IC50 of CCCCN(CC(=O)N1CCN(c2ccc3[nH]c(-c4cn5ncnc5c(C)c4C)c(C(C)C)c3n2)CC1)C(C)C is 7.76

The reported human TLR9 (Homo sapiens (Human)) IC50 of Cc1c(-c2[nH]c3ccc(N4C[C@@H](C)N(C(=O)CN(CCO)C(C)(C)C)[C@H](C)C4)nc3c2C(C)C)cn2ncnc2c1C is 24.3

The reported human TLR9 (Homo sapiens (Human)) IC50 of Cc1c(-c2[nH]c3ccc(N4CCN[C@H](CO)C4)nc3c2C(C)C)cn2ncnc2c1C [Example 994] is 11.8

The reported human TLR9 (Homo sapiens (Human)) IC50 of CNC(=O)CCN1CCN(c2ccc3[nH]c(-c4cn5ncnc5c(C)c4C)c(C(C)C)c3n2)[C@@H](C)C1 is 12.8

The reported human TLR9 (Homo sapiens (Human)) IC50 of Cc1c(-c2[nH]c3ccc(N4CCN(C(=O)CN5CCCC5)[C@H](C)C4)nc3c2C(C)C)cn2ncnc2c1C is 7.2

The reported human TLR9 (Homo sapiens (Human)) IC50 of Cc1c(-c2[nH]c3ccc(C4CCC(NC(C)(C)C)CC4)nc3c2C(C)C)cn2ncnc2c1C (stereo not shown) [Example 1056] is 2.99

* * *

Consider the following molecules; for each one, report its pIC50.
# Tested Target: human TLR9 (Homo sapiens (Human))
# Protocol Description: TLR9 inhibition reporter assay (HEK-Blue SEAP)
# Study Conditions: read-out: TLR9 IC50; HEK-Blue human TLR9 cells, ODN2006 5 nM
Formally, pIC50 is defined as -log10 of the concentration c, with c in mol/L.

// pIC50 value for Cc1c(-c2[nH]c3ccc(N4C[C@H](C)NC[C@H]4C)nc3c2C(C)C)cn2ncnc2c1C [Example 990] : 5.22

// pIC50 value for Cc1c(-c2[nH]c3ccc(C4CC5(C4)CN(CCC(N)=O)C5)nc3c2C(C)C)cn2ncnc2c1C [Example 1029] : 5.08

// pIC50 value for Cc1c(-c2[nH]c3ccc(N4CCN[C@@H](C(C)C)C4)nc3c2C(C)C)cn2ncnc2c1C [Example 983] : 5.19

// pIC50 value for CCCN1CC2(C1)CN(c1ccc3[nH]c(-c4cc(OC)c5ncnn5c4)c(C(C)C)c3n1)C2 [Example 1019] : 5.48

// pIC50 value for Cc1c(-c2[nH]c3ccc(N4CCN(C(C)C)C[C@H]4C)nc3c2C(C)C)cn2ncnc2c1C [Example 833] : 5.01

// pIC50 value for Cc1c(-c2[nH]c3ccc(N4CC5(C4)CN(C4COC4)C5)nc3c2C(C)C)cn2ncnc2c1C [Example 1011] : 4.62

// pIC50 value for COC1CN(C2CCC(c3ccc4[nH]c(-c5cn6ncnc6c(C)c5C)c(C(C)C)c4n3)CC2)C1 (stereo not shown) [Example 1045] : 5.49

// pIC50 value for Cc1c(-c2[nH]c3ccc(N4[C@H](C)CN(CC(N)=O)C[C@H]4C)nc3c2C(C)C)cn2ncnc2c1C [Example 866] : 4.32

// pIC50 value for Cc1c(-c2[nH]c3ccc(N4C[C@@H](C)N(C(=O)CN5CCCC5)[C@H](C)C4)nc3c2C(C)C)cn2ncnc2c1C [Example 928] : 5.44

// pIC50 value for Cc1c(-c2[nH]c3ccc(N4C[C@H](C)N(C(=O)CN5CCCC5)C[C@H]4C)nc3c2C(C)C)cn2ncnc2c1C [Example 936] : 5.33

// pIC50 value for Cc1c(-c2[nH]c3ccc(N4CCN(C(=O)CCN(C)C)C[C@@H]4C)nc3c2C(C)C)cn2ncnc2c1C [Example 811] : 5.25

// pIC50 value for CCN(C)CC(=O)N1CCN(c2ccc3[nH]c(-c4cn5ncnc5c(C)c4C)c(C(C)C)c3n2)CC1 [Example 870] : 4.84

// pIC50 value for Cc1c(-c2[nH]c3ccc(N4C[C@@H](C)N(C(=O)CCN(C)C)C[C@@H]4C)nc3c2C(C)C)cn2ncnc2c1C [Example 843] : 5.26

// pIC50 value for Cc1c(-c2[nH]c3ccc(NCCN)nc3c2C(C)C)cn2ncnc2c1C [Example 1001] : 4.93

// pIC50 value for CCN(CC)CC(=O)N1CCN(c2ccc3[nH]c(-c4cn5ncnc5c(C)c4C)c(C(C)C)c3n2)[C@@H](C)C1 [Example 902] : 4.80

// pIC50 value for Cc1c(-c2[nH]c3ccc(N4CCN(C(=O)CN(C)CC(C)(C)O)CC4)nc3c2C(C)C)cn2ncnc2c1C [Example 949] : 4.51

// pIC50 value for Cc1c(-c2[nH]c3ccc(N4CCN(C(=O)CCN(C)C)[C@H](C)C4)nc3c2C(C)C)cn2ncnc2c1C [Example 850] : 5.18

// pIC50 value for CCN(C)CC(=O)N1CCN(c2ccc3[nH]c(-c4cn5ncnc5c(C)c4N)c(C(C)C)c3n2)C[C@H]1C [Example 942] : 4.92

// pIC50 value for Cc1c(-c2[nH]c3ccc(N4CCN(C(=O)CN)CC4)nc3c2C(C)C)cn2ncnc2c1C [Example 832] : 4.78

// pIC50 value for Cc1c(-c2[nH]c3ccc(N4CCN(C(=O)CN(C(C)C)C(C)C)C[C@@H]4C)nc3c2C(C)C)cn2ncnc2c1C [Example 903] : 4.45

// pIC50 value for Cc1c(-c2[nH]c3ccc(N4[C@H](C)CN(C(=O)CN(C)C)C[C@H]4C)nc3c2C(C)C)cn2ncnc2c1C [Example 863] : 5.22

// pIC50 value for Cc1c(-c2[nH]c3ccc(N4CCN(CCC(N)=O)C[C@@H]4C)nc3c2C(C)C)cn2ncnc2c1C [Example 804] : 4.74

// pIC50 value for CCN(C1CCC(c2ccc3[nH]c(-c4cn5ncnc5c(C)c4C)c(C(C)C)c3n2)CC1)C1COC1 (stereo not shown) [Example 1038] : 5.72

// pIC50 value for COc1cc(-c2[nH]c3ccc(C4CCC(N5CC6(CCO6)C5)CC4)nc3c2C(C)C)cn2ncnc12 (stereo not shown) [Example 1074] : 5.67

// pIC50 value for Cc1c(-c2[nH]c3ccc(N4C[C@@H](C)N(C(=O)CCN5CC6(COC6)C5)C[C@@H]4C)nc3c2C(C)C)cn2ncnc2c1C [Example 908] : 5.19

// pIC50 value for Cc1c(-c2[nH]c3ccc(N4CCN(C(=O)CN(C)C(C)C)[C@H](C)C4)nc3c2C(C)C)cn2ncnc2c1C [Example 943] : 5.00

// pIC50 value for Cc1c(-c2[nH]c3ccc(C4CCC(N5CC6(CCS6(=O)=O)C5)CC4)nc3c2C(C)C)cn2ncnc2c1C (stereo not shown) [Example 1076] : 4.98

// pIC50 value for Cc1c(-c2[nH]c3ccc(N4C[C@@H](C)N(C(=O)CCN5CCC(F)C5)C[C@@H]4C)nc3c2C(C)C)cn2ncnc2c1C (stereo partly shown) [Example 909] : 5.17

* * *

# Tested Target: human TLR9 (Homo sapiens (Human), UniProt Q9NR96)
# Sequence (Q9NR96 26-1032): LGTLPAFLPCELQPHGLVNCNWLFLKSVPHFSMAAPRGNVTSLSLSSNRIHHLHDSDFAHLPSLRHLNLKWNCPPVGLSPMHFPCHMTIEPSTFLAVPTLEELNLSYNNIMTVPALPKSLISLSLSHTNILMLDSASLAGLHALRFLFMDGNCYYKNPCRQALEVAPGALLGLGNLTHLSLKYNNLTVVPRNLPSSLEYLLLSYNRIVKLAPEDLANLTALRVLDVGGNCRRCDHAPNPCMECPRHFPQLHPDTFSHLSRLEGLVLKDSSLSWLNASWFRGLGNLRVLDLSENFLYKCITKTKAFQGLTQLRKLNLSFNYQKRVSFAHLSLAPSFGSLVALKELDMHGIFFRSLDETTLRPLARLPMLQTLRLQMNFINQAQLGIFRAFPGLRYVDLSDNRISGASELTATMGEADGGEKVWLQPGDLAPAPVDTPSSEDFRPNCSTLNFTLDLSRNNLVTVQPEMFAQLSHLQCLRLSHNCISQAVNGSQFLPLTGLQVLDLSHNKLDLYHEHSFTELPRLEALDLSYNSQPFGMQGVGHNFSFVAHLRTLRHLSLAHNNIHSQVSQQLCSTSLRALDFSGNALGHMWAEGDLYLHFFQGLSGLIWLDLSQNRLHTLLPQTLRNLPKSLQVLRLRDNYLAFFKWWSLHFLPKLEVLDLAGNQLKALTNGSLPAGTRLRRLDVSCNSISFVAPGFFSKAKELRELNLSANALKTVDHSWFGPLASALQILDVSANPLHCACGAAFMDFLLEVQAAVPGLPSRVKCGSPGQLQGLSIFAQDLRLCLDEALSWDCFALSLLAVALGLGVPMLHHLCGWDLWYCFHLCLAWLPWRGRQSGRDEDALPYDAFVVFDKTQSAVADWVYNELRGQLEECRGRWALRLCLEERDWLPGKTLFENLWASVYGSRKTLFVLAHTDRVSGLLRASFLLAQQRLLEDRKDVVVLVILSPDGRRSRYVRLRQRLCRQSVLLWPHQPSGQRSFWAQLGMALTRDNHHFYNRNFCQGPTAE
# Protocol Description: TLR9 inhibition reporter assay (HEK-Blue SEAP);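 also: SEAP driven by an IFN-β minimal promoter with NF-κB and AP-1 sites, read after 22 h, compounds dosed 0.05 nM–50 µM, inhibition scaled between agonist plus DMSO and reference-inhibitor wells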
# Study Conditions: read-out: TLR9 IC50; HEK-Blue cells overexpressing human TLR9, ODN2006 5 nM stimulation, SEAP reporter
Measured Property: pIC50
Formally, pIC50 is defined as -log10 of the concentration c, with c in mol/L.

// pIC50 value for COc1cc(-c2[nH]c3ccc(N4CCN(C(=O)CN(C)C)CC4)nc3c2C(C)C)cn2ncnc12 : 5.30

// pIC50 value for CCCCN1CCN(c2ccc3[nH]c(-c4cc(OC)c5ncnn5c4)c(C(C)C)c3n2)CC1 : 5.46

// pIC50 value for COc1ncc(CNC2CCN(c3ccc4[nH]c(-c5cn6ncnc6c(C)c5C)c(C(C)C)c4n3)CC2)cn1 : 5.47

// pIC50 value for Cc1c(-c2[nH]c3ccc(N4CCC(N(C)Cc5ccnn5C)CC4)nc3c2C(C)C)cn2ncnc2c1C : 4.94

// pIC50 value for COc1cc(-c2[nH]c3cc(C)c(C4CCC(NC5COC5)CC4)nc3c2C(C)C)cn2ncnc12 (stereo not drawn) [Example 309] : 6.57

// pIC50 value for CNC1CCC(c2ccc3[nH]c(-c4cc(OC)c5ncnn5c4)c(C(C)C)c3n2)CC1 (stereo not drawn) [Example 189] : 6.50

// pIC50 value for Cc1c(-c2[nH]c3ccc(N4CCC(N(C)C5CCOCC5)CC4)nc3c2C(C)C)cn2ncnc2c1C : 5.48

// pIC50 value for Cc1c(-c2[nH]c3ccc(N4CCN(C(C)C)CC4)nc3c2C(C)C)cn2ncnc2c1C : 5.21

// pIC50 value for COc1cc(-c2[nH]c3ccc(C4CCC(N(C)CC(N)=O)CC4)nc3c2C(C)C)cn2ncnc12 (stereo not drawn) [Example 212] : 5.92

// pIC50 value for COc1cc(-c2[nH]c3ccc(C4CCC(N5CCCC5)CC4)nc3c2C(C)C)cn2ncnc12 (stereo not drawn) [Example 195] : 6.28

// pIC50 value for COc1cc(-c2[nH]c3ccc(C4CCC(NCc5cnco5)CC4)nc3c2C(C)C)cn2ncnc12 (stereo not drawn) [Example 204] : 5.88

// pIC50 value for CC(C)c1c(-c2cn(C)c3ncccc23)[nH]c2ccc(C3CCC(N(C)CC(=O)N(C)C)CC3)nc12 (stereo not drawn) [Example 200] : 6.11

// pIC50 value for Cc1cnc(CNC2CCC(c3ccc4[nH]c(-c5cn6ncnc6c(C)c5C)c(C(C)C)c4n3)CC2)cn1 (stereo not drawn) [Example 357] : 5.98

// pIC50 value for Cc1cc(-c2[nH]c3ccc(C4CCC(N5CC6(COC6)C5)CC4)nc3c2C(C)C)cn2ncnc12 (stereo not drawn) [Example 281] : 6.06
